Target: Mo-reducing enzyme
Construct: native protein purified from cytoplasmic fraction (Mono Q twice, Zorbax GF-250); monomer, 105 kDa by gel filtration, 100 kDa by SDS-PAGE
Assay: Mo blue formation assay, […] nm
Format: biochemical, Serratia sp. DRY5
Conditions: general reagent, metal chelator; assay with 12-MP and NADH; read-out: Concentrations which decrease enzyme activity by 50%
Quantity measured: pIC50
One number for each entry, as −log10 of the molar value.

Give the value of pIC50 reported for the following: O=C(O)CN(CCN(CC(=O)O)CC(=O)O)CC(=O)O
4.00
